Where these numbers come from: patent US20170122958A1

Target: Brd2(2) (Homo sapiens)
Construct: Plasmids of the eight single BET bromodomain constructs Brd2(1), Brd2(2), Brd3(1), Brd3(2); His6 (N); made in house; host or cells: E. coli BL21(DE3)
Sequence (P25440 344-453 limits assumed): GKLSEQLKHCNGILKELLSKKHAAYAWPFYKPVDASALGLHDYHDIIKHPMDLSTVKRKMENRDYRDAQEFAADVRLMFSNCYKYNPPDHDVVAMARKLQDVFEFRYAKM
Assay: ITC reverse titration of protein into compound
Type: binding
Conditions: Kd Brd2(2), ITC 25° C.
Procedure: ITC experiments were carried out on a ITC200 instrument from MicroCal™ Experiments were conducted at 3 different temperatures 15° C., 25° C. and 30° C., while stirring at 1000 rpm. Buffers of proteins, peptide and compounds were matched to 20 mM HEPES pH 7.5 at 25° C. and 100 mM NaCl. Frozen protein was buffer exchanged as described for the DSF experiments. Each titration comprised 1 initial injection of 0.4 μl lasting 0.8 s, followed by 19 injections of 2 μl lasting 4 s each at 2 min intervals. […]

{"compound": "CC[C@@H](C(=O)OC)[C@@H]1N=C(c2ccc(Cl)cc2)c2cc(OC)ccc2-n2c(C)nnc21 (racemic)", "Kd": "2.2 µM"}
{"compound": "COC(=O)CC1N=C(c2cccc3[nH]ccc23)c2cc(OC)ccc2-n2c(C)nnc21 (centres unmarked)", "Kd": "~0.09 µM"}
